Reported EC50 is given for each of the following compounds.
TESTED ON: glutathione S-transferase (Schistosoma japonicum GST tag binding GSH beads)
ASSAY REMARKS: GST–glutathione bead interaction interference profiling – biochemical, multiplex beads, flow cytometry, profiling panel (AID 1769);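 note: target is a GST and green fluorescent protein fusion captured on glutathione beads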
MEASUREMENT CONTEXT: flow cytometry fluorescence

CHEMICAL SMILES: COc1cc2c(cc1OC)-c1cc(NC3CCCCCC3)nc(=O)n1CC2
MEASURED VALUE: 21000 nM

State the recorded EC50 for this entry: COc1cc2[nH]c(=S)nc(NC3CCCCCC3)c2cc1OC
1320 nM

Reported EC50, compound CCn1cc(C(=O)O)c(=O)c2cc(F)c(N/N=C/c3ccccc3)cc21 : ____
3880 nM

Bench note: what EC50 did Cc1cc2nc3c(=O)[nH]c(=O)[nH]c3nc2c([N+](=O)[O-])c1N show?
1180 nM

Quick one: EC50 of CC(=O)Oc1ccc2c(c1)Oc1cc(OC(C)=O)ccc1C21OC(=O)c2ccccc21 ?
1510 nM

---

TESTED ON: glutathione S-transferase (Schistosoma japonicum GST tag binding GSH beads)
ASSAY REMARKS: GST–glutathione bead interaction interference profiling – biochemical, multiplex beads, flow cytometry, profiling panel (AID 1769);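 note: target is a GST and green fluorescent protein fusion captured on glutathione beads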
MEASUREMENT CONTEXT: flow cytometry fluorescence
ASSAY READOUT: EC50

Some entries whose results are on file:
CHEMICAL SMILES: COc1ccc(OC)c(S(=O)(=O)Nc2ccc(O)c(Sc3ncn[nH]3)c2)c1
ASSAY READOUT: EC50
MEASURED VALUE: 4.38 µM
//
CHEMICAL SMILES: O=C(CSc1ccc2nnc(-c3cccs3)n2n1)N1CCCC1
ASSAY READOUT: EC50
MEASURED VALUE: 1.3 µM
//
CHEMICAL SMILES: C/C(=N\Nc1ccc(S(N)(=O)=O)cc1[N+](=O)[O-])c1ccc2c(c1)OCO2
ASSAY READOUT: EC50
MEASURED VALUE: 1.4 µM
//
CHEMICAL SMILES: O=C(NCc1cccnc1)c1cccn2c(=O)c3sccc3nc12
ASSAY READOUT: EC50
MEASURED VALUE: 25.2 µM
//
CHEMICAL SMILES: O=C(O)c1cc(C(=O)O)cc(-c2ccc(/C=c3/sc4nc5ccccc5n4c3=O)o2)c1
ASSAY READOUT: EC50
MEASURED VALUE: 11.9 µM

Entry under review: COCCCNc1nc(=S)[nH]c2cc(OC)c(OC)cc12 . Reported EC50?
15.2 µM

Given the compound N#Cc1ccc2ccn(CC(=O)N3CCCc4ccccc43)c2c1 , what is its reported EC50?
2.4 µM

---

TESTED ON: glutathione S-transferase (Schistosoma japonicum GST tag binding GSH beads)
ASSAY REMARKS: GST–glutathione bead interaction interference profiling – biochemical, multiplex beads, flow cytometry, profiling panel (AID 1769);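 note: target is a GST and green fluorescent protein fusion captured on glutathione beads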
MEASUREMENT CONTEXT: flow cytometry fluorescence
Catalogue of EC50 values

Below, 4 compounds whose answers are already recorded.
COMPOUND: O=C1/C(=C\c2ccc(-c3ccccc3Cl)o2)SC(=S)N1CC1CCCO1 (stereo unspecified)
EC50: 17.3 µM
--
COMPOUND: NC(=O)c1cc2nc(-c3ccco3)cc(C(F)(F)F)n2n1
EC50: 15.9 µM
--
COMPOUND: CCOc1ccc2c(c1)c(N=NC(=N)N)c(O)n2C
EC50: 25.6 µM
--
COMPOUND: O=C(NCc1cccs1)c1cccn2c(=O)c3sccc3nc12
EC50: 0.664 µM

Query: EC50; subject: Cc1ccc2c(c1)c1nnc(SCC(=O)N3CCCc4ccccc43)nc1n2CC(=O)O
69.6 µM

# input compound: O=C1/C(=C/c2ccc(N3CCOCC3)o2)SC(=Nc2ccccc2)N1CCc1c[nH]c2ccccc12 ; wanted: its EC50
0.0697 µM

I am curious: what EC50 value has been reported for COc1ccc(-c2csc(C3=C(O)CN(C(C)C)C3=N)n2)cc1OC ?
87.3 µM

---

TESTED ON: glutathione S-transferase (Schistosoma japonicum GST tag binding GSH beads)
ASSAY REMARKS: GST–glutathione bead interaction interference profiling – biochemical, multiplex beads, flow cytometry, profiling panel (AID 1769);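 note: target is a GST and green fluorescent protein fusion captured on glutathione beads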
MEASUREMENT CONTEXT: flow cytometry fluorescence
In this section we review reported EC50 values for a set of compounds.

CHEMICAL SMILES: Oc1ccc(/C=N/NC(=S)N/N=C/c2ccc(O)cc2)cc1
TESTED ON: glutathione S-transferase (Schistosoma japonicum GST tag binding GSH beads)
MEASURED VALUE: 13.4 µM
//
CHEMICAL SMILES: COc1cccc(N=Nc2c(N)[nH]n3c(=O)c4c(nc23)CCCC4)c1
TESTED ON: glutathione S-transferase (Schistosoma japonicum GST tag binding GSH beads)
MEASURED VALUE: 1.22 µM
//
CHEMICAL SMILES: CCOC(=O)c1cc2c(N)c(C(=O)c3ccc(Br)cc3)sc2[nH]c1=O
TESTED ON: glutathione S-transferase (Schistosoma japonicum GST tag binding GSH beads)
MEASURED VALUE: 0.574 µM
//
CHEMICAL SMILES: NC(=S)N=Nc1c(O)[nH]c2c(Br)cc(Br)cc12
TESTED ON: glutathione S-transferase (Schistosoma japonicum GST tag binding GSH beads)
MEASURED VALUE: 69.1 µM
//
CHEMICAL SMILES: COC(=O)COc1ccc(/C=N/NC(=O)c2ccc(N(Cc3ccccc3)S(C)(=O)=O)cc2)cc1
TESTED ON: glutathione S-transferase (Schistosoma japonicum GST tag binding GSH beads)
MEASURED VALUE: 4.09 µM
//
CHEMICAL SMILES: O=[N+]([O-])c1cc(-c2ncccn2)c([N+](=O)[O-])s1
TESTED ON: glutathione S-transferase (Schistosoma japonicum GST tag binding GSH beads)
MEASURED VALUE: 7.57 µM

Param readout = EC50; param system = glutathione S-transferase (Schistosoma japonicum GST tag binding GSH beads); param query = COc1cccc2c(SCC(=O)N/N=C/c3ccc(O)cc3O)cc(C)nc12 ; response: value
45.4 µM

Lookup: EC50 / glutathione S-transferase (Schistosoma japonicum GST tag binding GSH beads) / COc1ccccc1CNC(=O)c1c(N)n(CCCN2CCOCC2)c2nc3ccccc3nc12
4.43 µM

State its EC50 on glutathione S-transferase (Schistosoma japonicum GST tag binding GSH beads): NS(=O)(=O)c1ccc(CCN2C(=O)/C(=C\c3ccc(Cl)cc3)SC2=S)cc1
6.03 µM

Reported EC50 for glutathione S-transferase (Schistosoma japonicum GST tag binding GSH beads), given COc1ccc(/C=N/NC(=O)Nc2cccc3nsnc23)cc1OC ?
0.682 µM

---

TESTED ON: glutathione S-transferase (Schistosoma japonicum GST tag binding GSH beads)
ASSAY REMARKS: GST–glutathione bead interaction interference profiling – biochemical, multiplex beads, flow cytometry, profiling panel (AID 1769);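 note: target is a GST and green fluorescent protein fusion captured on glutathione beads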
MEASUREMENT CONTEXT: flow cytometry fluorescence
ASSAY READOUT: pEC50
A value of pEC50 is the negative decimal logarithm of a concentration given in moles per litre.

CHEMICAL SMILES: CCOc1ccc(CCNc2ccc3nnc(-c4ccccc4)n3n2)cc1OCC
pEC50: 5.64
--
CHEMICAL SMILES: CC(C)(C)NC(=O)CCN(/N=C/c1ccc([N+](=O)[O-])o1)C1=NS(=O)(=O)c2ccccc21
pEC50: 5.47
--
CHEMICAL SMILES: COc1cc2c(cc1OC)-c1cc(NC3CCCCCCC3)nc(=O)n1CC2
pEC50: 4.69
--
CHEMICAL SMILES: O=[N+]([O-])c1ccc2c(c1)c(-c1ccccc1)nc1nncn12
pEC50: 5.52

Now examine the next entry.
Given Cn1c(SCCOc2ccccc2F)nc2ccccc2c1=O , state its recorded pEC50.
5.33

---

TESTED ON: glutathione S-transferase (Schistosoma japonicum GST tag binding GSH beads)
ASSAY REMARKS: GST–glutathione bead interaction interference profiling – biochemical, multiplex beads, flow cytometry, profiling panel (AID 1769);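 note: target is a GST and green fluorescent protein fusion captured on glutathione beads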
MEASUREMENT CONTEXT: flow cytometry fluorescence
ASSAY READOUT: pEC50
Remember the convention: pEC50 equals -log10 of concentration in molar.

As a guide, the following entries are already answered.
MOLECULE: O=c1nc2c(O)cccn2c2c1c(=O)[nH]c1ccccc12
ASSAY READOUT: pEC50
MEASURED VALUE: 5.59
--
MOLECULE: COc1ccc(/C=N/NC(=O)c2ccncc2)cc1Cn1nc([N+](=O)[O-])c(Br)c1C
ASSAY READOUT: pEC50
MEASURED VALUE: 5.04
--
MOLECULE: CCN(CC)c1ccc(/C=C/C(=O)c2ccc(Br)cc2)cc1
ASSAY READOUT: pEC50
MEASURED VALUE: 4.95

Which value of pEC50 has been reported for CSc1nc(Cc2ccccc2)cc(=O)[nH]1 in the records?
4.51

I have this molecule here, CCOc1cc(/C=C2\SC(=O)N=C2N)ccc1O , and I need its recorded pEC50.
5.61

For COCCNC(=S)Nc1cc(OC)c(OC)cc1C#N , what is its reported pEC50?
5.31

Entry O=C(Nc1cc(S(=O)(=O)Nc2ccccc2Cl)ccc1O)c1sc2cc(Cl)ccc2c1Cl has what pEC50?
5.44

Field request: pEC50 | item: O=c1c2c(-c3ccccc3)csc2nc2c3ccccc3c(NCCN3CCOCC3)nn12
5.74

Recorded pEC50 for NC(=S)N=Nc1c(O)[nH]c2cc(F)c(F)cc12 , please?
4.81

What value of pEC50 has been recorded for this entry: O=C(/C=C/c1ccc(N2CCC(c3ccccc3)=N2)cc1)c1ccccc1
6.47

What value of pEC50 has been recorded for this entry: COc1cc2[nH]c(=S)nc(Nc3ccc(NC(C)=O)cc3)c2cc1OC
5.54

Return reported pEC50; argument: Nc1c(C(=O)C2CC2)sc2nc(-c3cccs3)cc(C(F)(F)F)c12
4.71

Which pEC50 value belongs to O=S1(=O)N=C(N(CCO)/N=C/c2ccncc2)c2ccccc21 ?
4.44

So what does the record say about pEC50 for COc1cc(C(=S)NCc2ccccc2)cc(Br)c1O ?
4.27

Name the reported pEC50 value associated with the molecule N#Cc1c2nc3ccccc3nc2n2cc(NC(=O)c3ccc(F)cc3)ccc12
6.02
